B1: LINE1-mini (parent)
chain: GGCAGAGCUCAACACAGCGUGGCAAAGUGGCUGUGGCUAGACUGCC

Variants of: B1
Assay: self-cleavage, relative activity (ratio to wild type); higher = more cleavage; in vitro, sequencing; the parent is a self-cleaving ribozyme
Tick 1 if self-cleavage is 0.08 or greater. Tick -1 if self-cleavage is less than 0.08.

Observe how each entry below is paired with its result.
1) GGCAGAGCUCAACACAGCGUGGCAAAGUGGCUGUGGCUAGUCUGCA [A41U C46A] :: 1
2) GGCAGAGCUCAACACAGCGUAGCAAAGUGGCUGCGGCUAGACUGCC [G21A U34C] :: 1
3) GGCAGGGCUCACCACAGCGUGGCAAAGUGGCUGUGGCUAGACUGCC [A6G A12C] :: -1
4) GCCAGAGCUCAACACAGCGUGGCAAAGUGGCUGUGGCUAGACUGCU [G2C C46U] :: -1
5) GGCAGUGCUCAACACAGCGUGGCAAAGUGGCUGUGGCUAGUCUGCC [A6U A41U] :: 1
6) GGCAAAGCUCAACACAGCGUGGCAAAGUGGGUGUGGCUAGACUGCC [G5A C31G] :: -1
7) GGCAGAGCUCAACACAGCGUUGAAAAGUGGCUGUGGCUAGACUGCC [G21U C23A] :: 1
8) GGCAGAGCUCAACACCGCCUGGCAAAGUGGCUGUGGCUAGACUGCC [A16C G19C] :: 1

Is it the case that GGCAGAGCUCAACACAGCGUGGAAAAGUGGCUGUUGCUAGACUGCC [C23A G35U] has self-cleavage reaching or exceeding 0.08?
1

Is it the case that GGCAUAGCUCAACACAGCGUGCCAAAGUGGCUGUGGCUAGACUGCC [G5U G22C] has self-cleavage reaching or exceeding 0.08?
-1

Is it the case that GGCAGAGCUAAACACAGCGUGGCAAAGUGGCUGUGGCUAGAGUGCC [C10A C42G] has self-cleavage reaching or exceeding 0.08?
1

Is it the case that GGCAGAGUUCAACACAGCGUGGCAAAGUGUCUGUGGCUAGACUGCC [C8U G30U] has self-cleavage reaching or exceeding 0.08?
1

Is it the case that GGCAGAGCGCAACACAGCGUGCCAAAGUGGCUGUGGCUAGACUGCC [U9G G22C] has self-cleavage reaching or exceeding 0.08?
1
